Catalogue of TGI values
# Tested on: ACHN renal
# methodNotes: NCI tumour cell line growth inhibition, 48 h

molecule	testSystem	TGI
Cn1ccnc1Cn1cc(-c2cccc(-c3cn[nH]c3)c2)cn1	ACHN renal	> 100 µM
CCCCCCCCCCCCCCNc1nc(C(=O)OCC)ncc1-c1ccc(C(F)(F)F)cc1	ACHN renal	> 100 µM
O=C(c1c(Cl)cc(Cl)cc1Cl)N(Cc1cccnc1)C(=S)N(Cc1cccnc1)C(=O)c1c(Cl)cc(Cl)cc1Cl	ACHN renal	41.1 µM
CCOC(=O)C(C(N)=O)c1nc2cc([N+](=O)[O-])ccc2nc1/C=C(\O)c1ccccc1 (stereo not given)	ACHN renal	30.7 µM
C=C(CC[C@@H](C)[C@H]1CC[C@H]2[C@@H]3C[C@@H](O)[C@H]4C[C@@H](O)CC[C@]4(CO)[C@H]3CC[C@]12C)C(C)C	ACHN renal	12 µM

Give the value of TGI reported for the following: Clc1ccc(CN2COc3c(ccc4cccnc34)C2)cc1Cl
10.6 µM

Give the value of TGI reported for the following: N#Cc1c(C#N)c(SSc2c(C#N)c(C#N)c(N)n2-c2ccc(F)cc2)n(-c2ccc(F)cc2)c1N
8.55 µM

Give the value of TGI reported for the following: O=[N+]([O-])[O][Sn]([O][Sn]([O][N+](=O)[O-])([c]1ccccc1)[c]1ccccc1)([c]1ccccc1)[c]1ccccc1
> 100 µM

Give the value of TGI reported for the following: COC(=O)N1c2ccc3c(nc(Cc4ccccc4)n3[C@H]3CCC[C@H](C(=O)O)C3)c2CC[C@@H]1C
> 100 µM

Give the value of TGI reported for the following: CO/C=C(/C(=O)OC)c1ccccc1Oc1c(F)c(F)c(F)c(F)c1F
> 100 µM

Give the value of TGI reported for the following: Cc1ccnc2[nH]c(-c3cccc4ccccc34)cc(=O)c12
> 100 µM

Give the value of TGI reported for the following: COc1ccc2c(c1)CC[C@@H]1C2CC[C@]2(C)C(=O)N(CCN3CCCC3)C(=O)CC12 (stereo not given in full)
> 100 µM

Give the value of TGI reported for the following: COc1ccc(COC(=O)NNC(=O)C2CSC(c3ccccc3)N2C(C)=O)cc1 (stereo not given)
> 100 µM

Give the value of TGI reported for the following: O=C1c2ccccc2C2(O)Nc3c(ccc4ccccc34)C12O (stereo not given)
> 100 µM

Give the value of TGI reported for the following: COc1cc(C2CC(C)(N3CCCC3)Oc3cc4c(cc32)OCO4)cc(OC)c1OC (stereo not given)
> 100 µM

Give the value of TGI reported for the following: C=C1CC[C@@H]2C(C)(C)C(O)CCC2(C)C1COc1ccc2ccc(=O)oc2c1 (stereo not given in full)
30.5 µM

---

# Tested on: UACC-62 melanoma
# methodNotes: NCI tumour cell line growth inhibition, 48 h
measure: TGI

Examples with their reported TGI follow.
molecule	TGI
COC(O)C(=O)c1c2c(cc3c1CCC3)CCCC2 (configuration not stated)	12.3 µM
CCOC(=O)C(C)(C)Oc1ccc(Cl)cc1	> 1000 µM
O=C1c2ccccc2C2(O)Nc3c(ccc4ccccc34)C12O (configuration not stated)	> 100 µM
O=C(Nc1ccc(-n2ccc3c(NC(=O)c4ccccc4)nccc32)cc1)c1cccc(C(F)(F)F)c1	8.48 µM
O=C(O)c1cc2cc(OCc3ccccc3)ccc2[nH]1	> 100 µM
N#CC1Sc2ccccc2-n2cccc21 (configuration not stated)	99.2 µM

// next entry
Give the value of TGI reported for the following: CC12CC[C@@H]3c4cc5c(cc4CC[C@H]3[C@@H]1CCC2O)oc1cc(F)ccc15 (some centres not stated)
> 100 µM
